Listed compounds paired with reported CC50 at 72 h
# protocolDescription: Cytotoxicity against human HePAD38 cells assessed as cell viability incubated for 72 hrs by MTT assay
# Format: cell-based

- compound: "C=C1/C=C\\[C@H](OC(=O)COC(=O)CC(C)C)[C@@]2(C)[C@@H](OC(C)=O)CC[C@]3(CO3)[C@@H]2[C@H](OC(C)=O)[C@]2(O)[C@@H](C)C(=O)O[C@H]2[C@H]1Cl [FRAJUNOLIDE G]"
  CC50 at 72 h: "> 100 µM"
- compound: "C=C1/C=C\\[C@H](OC(C)=O)[C@@]2(C)[C@@H](OC(C)=O)CC[C@]3(CO3)[C@@H]2[C@H](OC(C)=O)[C@]2(O)[C@@H](C)C(=O)O[C@H]2[C@H]1Cl"
  CC50 at 72 h: "> 100 µM"
- compound: "C=C1/C=C/[C@H](OC(C)=O)[C@@]2(C)[C@@H](OC(C)=O)C[C@H](OC(C)=O)[C@]3(CO3)[C@@H]2[C@H](OC(C)=O)[C@]2(O)[C@@H](C)C(=O)O[C@H]2[C@H]1Cl"
  CC50 at 72 h: "> 100 µM"

###

The molecules listed here are annotated with their CC50 at 72 h.
# protocolDescription: Cytotoxicity against human HepG2 cells assessed as cell viability incubated for 72 hrs by MTT assay
# Format: cell-based

- molecule: "C=C1C[C@H](OC(C)=O)[C@H](OC(C)=O)[C@@]2(C)[C@H]1[C@H](OC(C)=O)[C@@]13O[C@@H](C(=C)[C@H](Cl)[C@@H]1OC(=O)[C@@H]3C)[C@@H](O)[C@@H]2OC(C)=O"
  CC50 at 72 h: "> 100 µM"
- molecule: "C=C1/C=C\\[C@H](OC(=O)COC(C)=O)[C@@]2(C)[C@@H](OC(C)=O)CC[C@]3(CO3)[C@@H]2[C@H](OC(C)=O)[C@]2(O)[C@@H](C)C(=O)O[C@H]2[C@H]1Cl"
  CC50 at 72 h: "> 100 µM"
- molecule: "C=C1/C=C\\[C@H](OC(C)=O)[C@@]2(C)[C@@H](OC(C)=O)CC[C@]3(CO3)[C@@H]2[C@H](OC(C)=O)[C@]2(O)[C@@H](C)C(=O)O[C@H]2[C@H]1Cl"
  CC50 at 72 h: "> 100 µM"
- molecule: "CC(=O)O[C@H]1CC[C@]2(CO2)[C@@H]2[C@H](OC(C)=O)[C@@]3(O)[C@H](/C=C(CCl)\\C=C/[C@H](OC(=O)COC(=O)CC(C)C)[C@@]12C)OC(=O)[C@@H]3C"
  CC50 at 72 h: "> 100 µM"
- molecule: "C=C1CC[C@H](OC(C)=O)[C@@]2(C)[C@H]1[C@H](OC(C)=O)[C@@]13O[C@@H](C(=C)[C@H](Cl)[C@@H]1OC(=O)[C@@H]3C)[C@@H](OC(C)=O)[C@@H]2OC(C)=O"
  CC50 at 72 h: "> 100 µM"
- molecule: "C=C1CC[C@H](OC(C)=O)[C@@]2(C)[C@H]1[C@H](OC(C)=O)[C@@]13O[C@@H](C(=C)[C@H](Cl)[C@@H]1OC(=O)[C@@H]3C)[C@@H](O)[C@@H]2OC(C)=O"
  CC50 at 72 h: "> 100 µM"
- molecule: "C=C1CC[C@H](OC(C)=O)[C@]2(C)[C@@H](OC(C)=O)C[C@@H](OC(C)=O)/C(CO)=C\\[C@@H]3OC(=O)[C@H](C)[C@@]3(O)[C@@H](OC(C)=O)[C@@H]12"
  CC50 at 72 h: "> 100 µM"
- molecule: "C=C1/C=C/[C@H](OC(C)=O)[C@@]2(C)[C@@H](OC(C)=O)[C@@H](OC(C)=O)C[C@]3(CO3)[C@@H]2[C@H](OC(C)=O)[C@]2(O)[C@@H](C)C(=O)O[C@H]2[C@H]1Cl [FRAJUNOLIDE I]"
  CC50 at 72 h: "> 100 µM"
- molecule: "C=C1CC[C@H](OC(C)=O)[C@]2(C)[C@@H](OC(C)=O)C[C@@H](OC(C)=O)/C(C)=C\\[C@@H]3OC(=O)[C@H](C)[C@@]3(O)[C@@H](OC(C)=O)[C@@H]12"
  CC50 at 72 h: "> 100 µM"
- molecule: "C=C1/C=C/[C@H](OC(=O)CC)[C@@]2(C)[C@@H](OC(C)=O)[C@@H](OC(C)=O)C[C@]3(CO3)[C@@H]2[C@H](OC(C)=O)[C@]2(O)[C@@H](C)C(=O)O[C@H]2[C@H]1Cl"
  CC50 at 72 h: "> 100 µM"
